# inhibition annotations
# Test system: Staphylococcus aureus subsp. aureus Mu50
# assay_name: Inhibition of quorum sensing system in methicillin-resistant Staphylococcus aureus Mu50 assessed as potentiation of vancomycin-mediated reduction in CFU/biofilm at 100 uM preincubated for 20 hrs followed by vancomycin addition measured after 24 hrs (reference value: 30 +/- 14%)
parameter: inhibition (%)

INSERT INTO assay_data (compound, parameter, reported_value) VALUES
  ('O=C(OC[C@H]1OC(O)[C@@](O)(COC(=O)c2cc(O)c(O)c(O)c2)[C@@H]1O)c1cc(O)c(O)c(O)c1 (stereo not given in full)', 'inhibition', 57),
  ('O=C(NC[C@H]1CN(C(=O)c2ccccc2Cl)CCO1)c1ccccc1', 'inhibition', -7),
  ('O=C(NC[C@]1(O)CO[C@H](CNC(=O)c2ccccc2Cl)[C@H]1O)c1ccccc1', 'inhibition', 88),
  ('O=C(NC[C@@H]1CO[C@H](CNC(=O)c2ccccc2Cl)CO1)c1ccccc1', 'inhibition', 95),
  ('O=C(NC[C@]1(O)CO[C@H](CNC(=O)c2ccccc2Cl)C1)c1ccccc1', 'inhibition', 21);
